# System: Radical scavenging activity
# assay.remarks: Antioxidant activity assessed as DPPH free radical scavenging activity at 100 uM after 30 mins
# Assay type: functional
Assign a class from recorded inhibition; defined classes: Low = under 40%, Medium = from 40% up to 50%, High = 50% and over

molecule	classification
COc1cc(COc2ccc(O)cc2)cc(OC)c1	High
Oc1ccc(OCc2ccc(Cl)c(Cl)c2)cc1	Low
COc1cc(COc2cc(O)cc(O)c2)cc(OC)c1	Medium

Pick a category. Item: Oc1cc(OCc2cccc(Cl)c2)cc(OCc2cccc(Cl)c2)c1
Low

Pick a category. Item: Oc1cc(O)cc(OCc2ccc(Cl)c(Cl)c2)c1
Low

Pick a category. Item: Oc1cc(O)cc(OCc2ccc(F)cc2)c1
Medium

Pick a category. Item: Oc1ccc(OCc2ccc(F)cc2)cc1
Medium

Pick a category. Item: Oc1cc(OCc2ccccc2Cl)cc(OCc2ccccc2Cl)c1
Low

Pick a category. Item: Oc1ccc(OCc2cccc(Cl)c2)cc1
High

Pick a category. Item: COc1cc(COc2cc(O)cc(OC(C)=O)c2)cc(OC)c1
Low

Pick a category. Item: O=C1O[C@H]([C@@H](O)CO)C(O)=C1O [ASCORBIC ACID]
High

Pick a category. Item: Oc1ccc(OCc2ccccc2Cl)cc1
Medium

Pick a category. Item: Oc1cc(O)cc(OCc2ccccc2Cl)c1
Medium

* * *

# maps each entry to its IC50
# target: Tyrosinase (Mus musculus, UniProt P11344)
# assay.remarks: Inhibition of tyrosinase activity in alpha-MSH-stimulated mouse B16 cells using L-tyrosine as substrate
Provide the reading as a plain figure in µM.

Here are 2 compounds together with their reported answers.
1) Oc1cc(O)cc(OCc2ccc(F)cc2)c1 90
2) Oc1cc(O)cc(OCc2ccc(Cl)c(Cl)c2)c1 66.4

Please find the next compound below.
Any idea what its IC50 is? The compound is Oc1cc(O)cc(OCc2cccc(Cl)c2)c1
54.7

* * *

# maps each entry to its EC50
# System: Radical scavenging activity
# assay.remarks: Antioxidant activity assessed as DPPH free radical scavenging activity after 30 mins
# Type: functional
Provide the reading as a plain figure in µM.

Here are 3 compounds together with their reported answers.
1) Oc1ccc(OCc2ccccc2Cl)cc1 113
2) Oc1cc(O)cc(OCc2ccc(F)cc2)c1 140
3) COc1cc(COc2cc(O)cc(O)c2)cc(OC)c1 129

Any idea what its EC50 is? The compound is O=C1O[C@H]([C@@H](O)CO)C(O)=C1O
26.2

Any idea what its EC50 is? The compound is Oc1ccc(OCc2cccc(Cl)c2)cc1
76.8

Any idea what its EC50 is? The compound is COc1cc(COc2ccc(O)cc2)cc(OC)c1
76.3

* * *

# target: Tyrosinase (Mus musculus)
# Sequence (whole entry): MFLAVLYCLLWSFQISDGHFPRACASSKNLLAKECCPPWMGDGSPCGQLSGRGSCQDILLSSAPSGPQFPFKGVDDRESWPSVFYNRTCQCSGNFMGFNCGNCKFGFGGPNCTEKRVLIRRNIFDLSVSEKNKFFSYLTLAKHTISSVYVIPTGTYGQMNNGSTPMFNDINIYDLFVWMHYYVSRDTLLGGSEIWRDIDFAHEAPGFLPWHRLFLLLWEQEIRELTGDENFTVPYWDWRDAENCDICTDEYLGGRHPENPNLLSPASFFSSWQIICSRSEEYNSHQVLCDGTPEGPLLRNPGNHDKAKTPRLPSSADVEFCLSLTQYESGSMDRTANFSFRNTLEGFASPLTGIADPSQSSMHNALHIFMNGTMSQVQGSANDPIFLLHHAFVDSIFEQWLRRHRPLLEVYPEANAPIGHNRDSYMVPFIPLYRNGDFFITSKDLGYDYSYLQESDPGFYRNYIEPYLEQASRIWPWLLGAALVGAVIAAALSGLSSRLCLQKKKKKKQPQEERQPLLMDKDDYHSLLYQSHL
# assay.remarks: Inhibition of tyrosinase activity in alpha-MSH-stimulated mouse B16 cells at 100 uM using L-tyrosine as substrate
# Type: cell-based
# maps each entry to its inhibition
Numeric answer plus unit only.

Any idea what its inhibition is? The molecule is Oc1ccc(OCc2ccccc2Cl)cc1
0%

Any idea what its inhibition is? The molecule is Oc1cc(O)cc(OCc2ccc(F)cc2)c1
55.5%

Any idea what its inhibition is? The molecule is COc1cc(COc2cc(O)cc(O)c2)cc(OC)c1
27.5%

Any idea what its inhibition is? The molecule is Oc1cc(OCc2ccc(F)cc2)cc(OCc2ccc(F)cc2)c1
5.5%

Any idea what its inhibition is? The molecule is COc1cc(COc2cc(O)cc(OCc3cc(OC)cc(OC)c3)c2)cc(OC)c1
0%

Any idea what its inhibition is? The molecule is Oc1cc(O)cc(OCc2cccc(Cl)c2)c1
70.5%

Any idea what its inhibition is? The molecule is Oc1cc(OCc2ccc(Cl)c(Cl)c2)cc(OCc2ccc(Cl)c(Cl)c2)c1
0%

Any idea what its inhibition is? The molecule is Oc1ccc(OCc2ccc(Cl)c(Cl)c2)cc1
9.5%

Any idea what its inhibition is? The molecule is COc1cc(COc2ccc(O)cc2)cc(OC)c1
0%

Any idea what its inhibition is? The molecule is Oc1ccc(OCc2ccc(F)cc2)cc1
1.5%

Any idea what its inhibition is? The molecule is Oc1ccc(OCc2cccc(Cl)c2)cc1
1%

* * *

# System: Radical scavenging activity
# assay.remarks: Antioxidant activity assessed as DPPH free radical scavenging activity at 100 uM after 30 mins
# Type: functional
reported.metric: inhibition (%)
Provide the reading as a plain figure in %.

Here are 4 compounds together with their reported answers.
1. COc1cc(COc2cc(O)cc(OCc3cc(OC)cc(OC)c3)c2)cc(OC)c1 27.4
2. Oc1cc(OCc2ccc(Cl)c(Cl)c2)cc(OCc2ccc(Cl)c(Cl)c2)c1 17
3. Oc1cc(OCc2ccc(F)cc2)cc(OCc2ccc(F)cc2)c1 21.2
4. CC(=O)Oc1cc(O)cc(OCc2ccc(Cl)c(Cl)c2)c1 8

Please find the next compound below.
Any idea what its inhibition is? The compound is Oc1cc(O)cc(OCc2cccc(Cl)c2)c1
49

* * *

# Test system: Radical scavenging activity
# assay.remarks: Antioxidant activity assessed as DPPH free radical scavenging activity after 30 mins
# Assay type: functional
reported.metric: pEC50
Scale: negative log10 of molar concentration, which is what pEC50 denotes.

Any idea what its pEC50 is? The molecule is Oc1ccc(OCc2ccc(F)cc2)cc1
3.99

Any idea what its pEC50 is? The molecule is Oc1cc(O)cc(OCc2ccccc2Cl)c1
3.78

Any idea what its pEC50 is? The molecule is Oc1cc(O)cc(OCc2cccc(Cl)c2)c1
3.92

* * *

# maps each entry to its inhibition
# target: UniProt P11344
# assay.remarks: Inhibition of tyrosinase activity in alpha-MSH-stimulated mouse B16 cells at 100 uM using L-tyrosine as substrate
# Format: cell-based
Provide the reading as a plain figure in %.

Here are 3 compounds together with their reported answers.
1) Oc1cc(OCc2cccc(Cl)c2)cc(OCc2cccc(Cl)c2)c1 1.5
2) Oc1cc(OCc2ccccc2Cl)cc(OCc2ccccc2Cl)c1 3.5
3) Oc1cc(O)cc(OCc2ccc(Cl)c(Cl)c2)c1 66

Any idea what its inhibition is? The compound is Oc1cc(O)cc(OCc2ccccc2Cl)c1
45.5
